Entries and their inhibition values follow.
assay system: Mitogen-activated protein kinase 9 (Homo sapiens) (UniProt P45984);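 note: values are mean inhibition of JNK2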
Sequence (P45984 whole entry, looked up): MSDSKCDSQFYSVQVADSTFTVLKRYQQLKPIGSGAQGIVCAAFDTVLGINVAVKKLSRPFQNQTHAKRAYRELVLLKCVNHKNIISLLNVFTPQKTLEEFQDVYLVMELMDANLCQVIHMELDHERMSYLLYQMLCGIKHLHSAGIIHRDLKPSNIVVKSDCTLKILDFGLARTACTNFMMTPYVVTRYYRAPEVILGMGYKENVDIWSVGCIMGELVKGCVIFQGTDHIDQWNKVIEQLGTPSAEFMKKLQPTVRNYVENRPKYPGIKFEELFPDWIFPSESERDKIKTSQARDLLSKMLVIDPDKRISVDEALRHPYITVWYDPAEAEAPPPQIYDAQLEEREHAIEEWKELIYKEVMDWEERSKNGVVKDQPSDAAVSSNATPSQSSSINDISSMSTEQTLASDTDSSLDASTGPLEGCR
measurement parameters: at 0.1 µM
Express it in %; write the number only.

# compound, assay endpoint, units symbol, observed
rows = [
    ("COC(=O)Nc1nc2cc(Oc3ccc(NC(=O)Nc4ccccc4)cc3)ccc2[nH]1", "inhibition", "%", 3.28),
    ("CN(c1ccc(NC(=O)NCCN2CCOCC2)cc1)c1ccnc(Nc2ccc(CS(C)(=O)=O)cc2)n1", "inhibition", "%", 1.5),
    ("CCN1CCC(C(=O)Nc2n[nH]c3nnc(-c4cccc(F)c4F)cc23)CC1", "inhibition", "%", -0.81),
    ("COc1ccc(-c2nn3ncccc3c2-c2ccnc(Nc3ccc(F)c(F)c3)n2)cc1", "inhibition", "%", 7.25),
    ("CS(=O)(=O)Nc1ccc(-c2cc(-c3ccccc3)cc(C(N)=O)c2N)cc1", "inhibition", "%", 0.94),
]

Briefly, inhibition measured for CC1=C(C(=O)Nc2ccc3[nH]ncc3c2)C(c2ccc(F)cc2)N=C(c2ccc(C(F)(F)F)nc2)N1 (stereo not drawn) : 1.61

Briefly, inhibition measured for `CS(=O)(=O)Nc1ccc(-c2ccc3c(NC(=O)C4CC4)n[nH]c3c2)cc1` : 2.01

Briefly, inhibition measured for `COc1cc(N2CCN(C(C)C)CC2)ccc1Nc1nc(Nc2cccc(F)c2C(=O)O)c2cc[nH]c2n1` : 26.4

Sourced from ChEMBL document CHEMBL1961873
